- target_or_system: MLK3 (Homo sapiens (Human), UniProt Q16584)
- Sequence (Q16584 whole entry, looked up): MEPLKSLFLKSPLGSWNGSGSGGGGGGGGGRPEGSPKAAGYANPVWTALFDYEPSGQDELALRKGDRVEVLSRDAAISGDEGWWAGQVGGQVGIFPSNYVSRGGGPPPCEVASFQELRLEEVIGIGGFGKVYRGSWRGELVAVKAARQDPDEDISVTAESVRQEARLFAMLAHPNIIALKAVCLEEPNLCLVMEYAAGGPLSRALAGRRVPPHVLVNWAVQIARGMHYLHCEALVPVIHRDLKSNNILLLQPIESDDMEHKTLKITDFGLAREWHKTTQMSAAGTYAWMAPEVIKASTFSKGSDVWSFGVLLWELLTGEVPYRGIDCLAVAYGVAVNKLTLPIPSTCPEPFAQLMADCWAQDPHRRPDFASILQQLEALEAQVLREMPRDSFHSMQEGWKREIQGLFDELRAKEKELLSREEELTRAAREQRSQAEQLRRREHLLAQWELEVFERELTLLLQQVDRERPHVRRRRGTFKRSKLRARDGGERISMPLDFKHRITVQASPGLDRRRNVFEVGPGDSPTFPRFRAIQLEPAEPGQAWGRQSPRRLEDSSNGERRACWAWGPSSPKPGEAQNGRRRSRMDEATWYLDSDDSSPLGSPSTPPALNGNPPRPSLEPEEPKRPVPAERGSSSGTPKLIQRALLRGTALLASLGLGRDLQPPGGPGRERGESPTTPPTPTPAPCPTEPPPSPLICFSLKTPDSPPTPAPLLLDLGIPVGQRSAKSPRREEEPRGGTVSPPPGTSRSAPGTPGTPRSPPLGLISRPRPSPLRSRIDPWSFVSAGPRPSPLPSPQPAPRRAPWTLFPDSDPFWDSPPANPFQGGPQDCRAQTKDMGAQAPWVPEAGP
- procedure_summary: Evaluation of inhibitory activity of enzyme units, MLK3 ([γ-33P]-ATP filter assay)
- measurement_parameters: read-out: IC50(nM) MLK3
endpoint: log10(IC50) (log10 of the value in nM)
Each number you see is log10 of IC50, and the unit inside the log is nM.

Query: Check the records and state log10(IC50) for CCS(=O)(=O)N1CC[C@H](Nc2c(Br)cnc3[nH]c(-c4cc(C)n(-c5cccc(NS(C)(=O)=O)c5C)c4C)nc23)C1 [Example 9]
Response: 1.00

Query: Check the records and state log10(IC50) for CCS(=O)(=O)N1CC[C@H](Nc2c(Br)cnc3[nH]c(-c4cc(C)n(-c5ccc(C(=O)O)cc5)c4C)nc23)C1 [Example 59]
Response: 1.28

Query: Check the records and state log10(IC50) for CCS(=O)(=O)N1CC[C@H](Nc2c(Br)cnc3nc(-c4cc(C)n(-c5cccc(NC(=O)CCN(C)C)c5C)c4C)[nH]c23)C1 [Example 86]
Response: 0.85

Query: Check the records and state log10(IC50) for CCS(=O)(=O)N1CC[C@H](Nc2c(Br)cnc3[nH]c(-c4cc(C)n(-c5ccc(S(=O)(=O)N6CCOCC6)cc5)c4C)nc23)C1 [Example 10]
Response: 0.85

Further cases:
Query: Check the records and state log10(IC50) for Cc1cc(NS(C)(=O)=O)ccc1-n1c(C)cc(-c2nc3c(Nc4cccc(S(N)(=O)=O)c4)c(Br)cnc3[nH]2)c1C [Example 32]
Response: 1.51

Query: Check the records and state log10(IC50) for Cc1ccc(NC(=O)CN(C)C)cc1-n1c(C)cc(-c2nc3ncc(Br)c(Nc4cccc(S(N)(=O)=O)c4)c3[nH]2)c1C [Example 90]
Response: 1.96

---

As shown below, each of these compounds has a reported inhibition at 10 µM value.
- Tested on: acute myeloid leukemia cell line U937
- procedure_summary: Cancer cell proliferation inhibitory activity evaluation 2 (CCK-8), U937
- Type: cell-based
- measurement_parameters: Homo sapiens, U-937; 10 μM, 72 hours, CCK-8 (Table 3); read-out: Cancer cell proliferation inhibitory activity U937

// below: answered compounds
Query: Report value only: inhibition at 10 µM, acute myeloid leukemia cell line U937, "CCS(=O)(=O)N1CC[C@H](Nc2c(Br)cnc3nc(-c4cc(C)n(-c5ccc(OCCN6CCOCC6)cc5)c4C)[nH]c23)C1"
Response: > 50%

Query: Report value only: inhibition at 10 µM, acute myeloid leukemia cell line U937, "CCS(=O)(=O)N1CC[C@H](Nc2c(Br)cnc3[nH]c(-c4cc(C)n(-c5ccc(C(=O)NCCN6CCOCC6)cc5)c4C)nc23)C1"
Response: > 50%

Further cases:
Query: Report value only: inhibition at 10 µM, acute myeloid leukemia cell line U937, "Cc1cc(-c2nc3ncc(Br)c(Nc4cccc(S(N)(=O)=O)c4)c3[nH]2)c(C)n1-c1ccc(OCCN2CCOCC2)cc1"
Response: 10 to 50%

Query: Report value only: inhibition at 10 µM, acute myeloid leukemia cell line U937, "CCS(=O)(=O)N1CC[C@H](Nc2c(Br)cnc3nc(-c4cc(C)n(-c5ccc(NC(=O)CN6CCOCC6)cc5C)c4C)[nH]c23)C1"
Response: > 50%

Query: Report value only: inhibition at 10 µM, acute myeloid leukemia cell line U937, "Cc1cc(-c2nc3c(Nc4cccc(S(N)(=O)=O)c4)c(Br)cnc3[nH]2)c(C)n1-c1c(Cl)cccc1Cl"
Response: 10 to 50%

Query: Report value only: inhibition at 10 µM, acute myeloid leukemia cell line U937, "COCCOc1ccc(Nc2c(Br)cnc3[nH]c(-c4cc(C)n(-c5ccc6c(c5)OCO6)c4C)nc23)cc1"
Response: 10 to 50%

Query: Report value only: inhibition at 10 µM, acute myeloid leukemia cell line U937, "CCS(=O)(=O)N1CC[C@H](Nc2c(Br)cnc3nc(-c4cc(C)n(-c5cc(NC(=O)CCN(C)C)ccc5C)c4C)[nH]c23)C1"
Response: > 50%

Query: Report value only: inhibition at 10 µM, acute myeloid leukemia cell line U937, "Cc1ccc(C(=O)N2CCN(C)CC2)cc1-n1c(C)cc(-c2nc3ncc(Br)c(Nc4cccc(S(N)(=O)=O)c4)c3[nH]2)c1C"
Response: < 10%

Query: Report value only: inhibition at 10 µM, acute myeloid leukemia cell line U937, "Cc1cc(-c2nc3c(Nc4cccc(S(N)(=O)=O)c4)c(Br)cnc3[nH]2)c(C)n1-c1cccc(N2CCOCC2)c1"
Response: 10 to 50%

Query: Report value only: inhibition at 10 µM, acute myeloid leukemia cell line U937, "Cc1cc(-c2nc3c(Nc4cccc(S(N)(=O)=O)c4)c(Br)cnc3[nH]2)c(C)n1-c1cc(Cl)ccc1Cl"
Response: 10 to 50%

Query: Report value only: inhibition at 10 µM, acute myeloid leukemia cell line U937, "COCCOc1cccc(-n2c(C)cc(-c3nc4ncc(Br)c(Nc5cccc(S(N)(=O)=O)c5)c4[nH]3)c2C)c1"
Response: 10 to 50%

Query: Report value only: inhibition at 10 µM, acute myeloid leukemia cell line U937, "Cc1ccc(C(=O)N2CCOCC2)cc1-n1c(C)cc(-c2nc3ncc(Br)c(Nc4cccc(S(N)(=O)=O)c4)c3[nH]2)c1C"
Response: 10 to 50%

Query: Report value only: inhibition at 10 µM, acute myeloid leukemia cell line U937, "CCS(=O)(=O)N1CC[C@H](Nc2c(Br)cnc3[nH]c(-c4cc(C)n(-c5ccc(S(=O)(=O)N6CCOCC6)cc5)c4C)nc23)C1"
Response: 10 to 50%

---

As shown below, each of these compounds has a reported inhibition at 10 µM value.
- System: acute myeloid leukemia cell line U937
- procedure_summary: Cancer cell proliferation inhibitory activity evaluation 1 (CCK-8), U937
- Assay type: cell-based
- measurement_parameters: Homo sapiens, U-937; 10 μM, 72 hours, CCK-8 (Table 2); read-out: Cancer cell proliferation inhibitory activity U937

Query: Check the records and state inhibition at 10 µM for "Cc1cc(-c2nc3ncc(Br)c(Nc4cccc(S(N)(=O)=O)c4)c3[nH]2)c(C)n1-c1ccc(OCCN2CCOCC2)cc1"
Response: < 10%

Query: Check the records and state inhibition at 10 µM for "Cc1cc(-c2nc3c(Nc4cccc(S(N)(=O)=O)c4)c(Br)cnc3[nH]2)c(C)n1-c1c(Cl)cccc1Cl"
Response: 10 to 50%

Query: Check the records and state inhibition at 10 µM for "Cc1cc(-c2nc3c(Nc4cccc(S(N)(=O)=O)c4)c(Br)cnc3[nH]2)c(C)n1-c1cccc(N2CCOCC2)c1"
Response: 10 to 50%

Query: Check the records and state inhibition at 10 µM for "CCS(=O)(=O)N1CC[C@H](Nc2c(Br)cnc3[nH]c(-c4cc(C)n(-c5cc(Cl)ccc5Cl)c4C)nc23)C1"
Response: 10 to 50%

Query: Check the records and state inhibition at 10 µM for "Cc1cc(-c2nc3c(Nc4cccc(S(N)(=O)=O)c4)c(Br)cnc3[nH]2)c(C)n1-c1ccccc1Cl"
Response: 10 to 50%

Query: Check the records and state inhibition at 10 µM for "Cc1cc(-c2nc3c(Nc4cccc(S(N)(=O)=O)c4)c(Br)cnc3[nH]2)c(C)n1-c1cc(Cl)ccc1Cl"
Response: 10 to 50%

---

- target_or_system: MLK3 (Homo sapiens (Human))
- procedure_summary: Evaluation of inhibitory activity of enzyme units, MLK3 ([γ-33P]-ATP filter assay)
- measurement_parameters: read-out: IC50(nM) MLK3
API: label(entry) gives class 1 if the entry's IC50 is strictly smaller than 20 nM; on equality or larger values it gives class 0.

Query: Dear reviewer, please state whether "CCS(=O)(=O)N1CC[C@H](Nc2c(Br)cnc3[nH]c(-c4cc(C)n(-c5ccc(Cl)c(Cl)c5)c4C)nc23)C1" has IC50 strictly beneath 20 nM.
Response: class 0

Query: Dear reviewer, please state whether "CCS(=O)(=O)N1CC[C@H](Nc2c(Br)cnc3nc(-c4cc(C)n(-c5cccc(OCCOC)c5)c4C)[nH]c23)C1" has IC50 strictly beneath 20 nM.
Response: class 1

Query: Dear reviewer, please state whether "CCS(=O)(=O)N1CC[C@H](Nc2c(Br)cnc3[nH]c(-c4cc(C)n(-c5cccc(C(=O)N(C)CCN(C)C)c5)c4C)nc23)C1" has IC50 strictly beneath 20 nM.
Response: class 0

Query: Dear reviewer, please state whether "CCS(=O)(=O)N1CC[C@H](Nc2ccnc3[nH]c(-c4cc(C)n(-c5cc(NS(C)(=O)=O)ccc5C)c4C)nc23)C1" has IC50 strictly beneath 20 nM.
Response: class 0

Further cases:
Query: Dear reviewer, please state whether "COCCOc1ccc(Nc2c(Br)cnc3[nH]c(-c4cc(C)n(-c5ccc6c(c5)OCO6)c4C)nc23)cc1" has IC50 strictly beneath 20 nM.
Response: class 0

Query: Dear reviewer, please state whether "CCS(=O)(=O)N1CC[C@H](Nc2c(Br)cnc3nc(-c4cc(C)n(-c5cccc(NC(=O)CN6CCOCC6)c5)c4C)[nH]c23)C1" has IC50 strictly beneath 20 nM.
Response: class 1
